Catalogue of hERG current change (%, negative = inhibition) at 10uM readings, one per entry.
Biological target: human ether-à-go-go-related gene (hERG) potassium channel (human)
Test: primary screen, population patch clamp on CHO cells stably expressing hERG; higher = less effect of the substance
Description: Briefly, Chinese hamster ovary (CHO) cells stably expressing the hERG channel were dislodged from tissue culture flasks and dispensed into PPC plates. […] During the recording, background leak currents were estimated by a 100 ms step to -80 mV from an initial holding potential of -70 mV and subtracted from the subsequent current measurement. The campaign was conducted in two phases using slight differences in recording protocol. […]
The whole screen tested about 310,000 compounds, of which about 14,000 (4.5%) showed an effect of 50% or more. The effect is printed as a negative number. The list comes from a sample in which strong results are over-represented; it also holds close analogues and randomly drawn compounds.
Number in %, nothing else.

Examples with answers:
hERG current change (%, negative = inhibition) at 10uM for CCOc1cc(/C=N/O)ccc1OS(=O)(=O)c1ccc(C)cc1 is -5.21

hERG current change (%, negative = inhibition) at 10uM for CCN(CC)c1nc(N)c([N+](=O)[O-])c(NCCO)n1 is 12.1

hERG current change (%, negative = inhibition) at 10uM for CCOc1cc(CNc2ccc3c(c2)CCC3)ccc1OC is -8.96

---
hERG current change (%, negative = inhibition) at 10uM for CCOc1cc(C=C2C(=O)NC(=O)NC2=O)ccc1OS(=O)(=O)c1ccccc1 is -18

hERG current change (%, negative = inhibition) at 10uM for Cc1ccc(NC(=O)CCNS(=O)(=O)c2ccccc2)c(C(=O)c2ccccc2)c1 is -20.4

hERG current change (%, negative = inhibition) at 10uM for Cc1ccc(C2=NS(=O)(=O)N(C)C(C(=O)NCc3ccc(F)cc3)=C2)cc1 is -28.4

hERG current change (%, negative = inhibition) at 10uM for COc1ccc(CNC(=O)C2=CC(c3ccc(OC)c(OC)c3)=NS(=O)(=O)N2C)cc1 is -21.8

hERG current change (%, negative = inhibition) at 10uM for CCOc1cc(/C=N/n2cnnc2)ccc1OS(=O)(=O)c1ccccc1 is -57.7

hERG current change (%, negative = inhibition) at 10uM for Cc1ccccc1-n1nnc2c(=O)oc3ccccc3c21 is 8.96

hERG current change (%, negative = inhibition) at 10uM for COc1ccc(C2=NS(=O)(=O)N(C)C(C(=O)NCc3ccc(F)cc3)=C2)cc1OC is -59

---

Biological target: human ether-à-go-go-related gene (hERG) potassium channel (human);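 note: peak tail current of the secondary pulse compared with the same well before compound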
Assay: primary screen, population patch clamp on CHO cells stably expressing hERG; higher = less effect of the substance
Experimental: Briefly, Chinese hamster ovary (CHO) cells stably expressing the hERG channel were dislodged from tissue culture flasks and dispensed into PPC plates. […] During the recording, background leak currents were estimated by a 100 ms step to -80 mV from an initial holding potential of -70 mV and subtracted from the subsequent current measurement. The campaign was conducted in two phases using slight differences in recording protocol. […]
In all, about 310,000 compounds went through this assay and about 14,000 (4.5%) showed an effect of 50% or more. The effect is printed as a negative number. For the sample, strong results were picked, then their nearest neighbours and some compounds at random.
PARAMETER: hERG current change (%, negative = inhibition) at 10uM (%)
Number in %, nothing else.

Examples with answers:
hERG current change (%, negative = inhibition) at 10uM for O=Cc1ccc2oc3nc4n(c(=O)c3c(=O)c2c1)CCCS4 is -35.7

hERG current change (%, negative = inhibition) at 10uM for CN(C)c1ccc(C=NCCC2(c3ccccc3)CCOC(C)(C)C2)cc1 (centres unmarked) is 15.3

hERG current change (%, negative = inhibition) at 10uM for COc1ccc(S(=O)(=O)N2CCOCC2)cc1NC(=O)CSc1cccc[n+]1[O-] is -3

hERG current change (%, negative = inhibition) at 10uM for CC(C)Cc1nnc(NC(=O)C2CCN(C(=O)c3ccc(Cl)cc3)CC2)s1 is -29.2

---
hERG current change (%, negative = inhibition) at 10uM for N/C(Cc1ccc(Cl)cc1Cl)=N\OC(=O)Cc1ccccc1 is 7.08

hERG current change (%, negative = inhibition) at 10uM for CCOc1cccc(C(=O)Nc2ccc3oc(-c4cccnc4)nc3c2)c1 is -9.4

---

Biological target: human ether-à-go-go-related gene (hERG) potassium channel (human, UniProt Q12809);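 note: peak tail current of the secondary pulse compared with the same well before compound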
Sequence (Q12809 whole entry, looked up): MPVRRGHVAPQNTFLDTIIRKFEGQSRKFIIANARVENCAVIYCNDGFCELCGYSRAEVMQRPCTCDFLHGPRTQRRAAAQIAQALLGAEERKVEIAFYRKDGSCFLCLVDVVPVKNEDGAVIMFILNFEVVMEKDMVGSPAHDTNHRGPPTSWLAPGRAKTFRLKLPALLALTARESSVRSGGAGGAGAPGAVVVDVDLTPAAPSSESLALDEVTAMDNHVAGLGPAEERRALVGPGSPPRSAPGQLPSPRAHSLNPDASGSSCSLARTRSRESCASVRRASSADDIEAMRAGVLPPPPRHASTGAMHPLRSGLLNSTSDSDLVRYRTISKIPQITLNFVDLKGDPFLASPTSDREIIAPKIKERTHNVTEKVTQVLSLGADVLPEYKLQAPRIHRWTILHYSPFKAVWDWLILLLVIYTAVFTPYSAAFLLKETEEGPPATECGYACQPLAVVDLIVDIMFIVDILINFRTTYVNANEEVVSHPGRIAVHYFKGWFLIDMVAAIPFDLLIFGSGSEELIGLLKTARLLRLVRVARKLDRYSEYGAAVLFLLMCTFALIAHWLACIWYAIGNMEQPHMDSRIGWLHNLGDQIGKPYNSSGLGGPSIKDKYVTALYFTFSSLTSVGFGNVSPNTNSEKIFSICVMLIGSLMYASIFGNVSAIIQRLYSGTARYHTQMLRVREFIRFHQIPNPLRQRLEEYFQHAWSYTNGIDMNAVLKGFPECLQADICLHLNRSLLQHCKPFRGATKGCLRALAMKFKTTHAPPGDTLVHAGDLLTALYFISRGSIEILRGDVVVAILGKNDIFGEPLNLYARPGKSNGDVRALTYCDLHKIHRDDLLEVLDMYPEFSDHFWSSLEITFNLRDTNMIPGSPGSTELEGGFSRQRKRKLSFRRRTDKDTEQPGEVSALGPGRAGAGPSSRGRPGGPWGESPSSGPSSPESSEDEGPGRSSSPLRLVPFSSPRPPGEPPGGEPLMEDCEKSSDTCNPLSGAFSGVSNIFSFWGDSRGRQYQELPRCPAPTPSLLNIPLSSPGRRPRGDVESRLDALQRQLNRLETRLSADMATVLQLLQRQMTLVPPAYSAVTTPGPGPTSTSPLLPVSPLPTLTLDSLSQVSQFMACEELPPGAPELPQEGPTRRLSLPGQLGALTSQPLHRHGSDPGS
Assay: primary screen, population patch clamp on CHO cells stably expressing hERG; higher = less effect of the substance
Experimental: Briefly, Chinese hamster ovary (CHO) cells stably expressing the hERG channel were dislodged from tissue culture flasks and dispensed into PPC plates. […] During the recording, background leak currents were estimated by a 100 ms step to -80 mV from an initial holding potential of -70 mV and subtracted from the subsequent current measurement. The campaign was conducted in two phases using slight differences in recording protocol. […]
Screen size: about 310,000 compounds; about 14,000 (4.5%) showed an effect of 50% or more. The effect is printed as a negative number. The entries come from a sample that favours strong results as a whole.
Label 1.0 when hERG current change (%, negative = inhibition) at 10uM >= -10%; otherwise 0.0.

Inquiry: Entry CCN(CC)c1ccc2cc(-c3nc4ccccc4n3C)c(=O)oc2c1 : is its hERG current change (%, negative = inhibition) at 10uM no less than -10%?
Reply text: 1.0

---
Inquiry: Entry O=C(CCN1C(=O)c2ccccc2C1=O)NNC(=O)c1ccc(Cl)cc1Cl : is its hERG current change (%, negative = inhibition) at 10uM no less than -10%?
Reply text: 1.0

Inquiry: Entry O=C(c1ccc(OC2CCN(Cc3ccccn3)CC2)cc1)N1CCCCCC1 : is its hERG current change (%, negative = inhibition) at 10uM no less than -10%?
Reply text: 0.0

---

molecular target: human ether-à-go-go-related gene (hERG) potassium channel (human, UniProt Q12809); assay: primary screen, population patch clamp on CHO cells stably expressing hERG; higher = less effect of the substance;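 note: peak tail current of the secondary pulse compared with the same well before compound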
The whole screen tested about 310,000 compounds, of which about 14,000 (4.5%) showed an effect of 50% or more. The effect is printed as a negative number. This is one part of a sample in which strong results are shown more often than they occur.
PARAMETER: hERG current change (%, negative = inhibition) at 10uM (%)
Number in %, nothing else.

Examples with answers:
hERG current change (%, negative = inhibition) at 10uM for CCCc1cc(=O)oc2c3c(cc(OCC(=O)NCc4ccncc4)c12)OC(C)(C)CC3 is -65

hERG current change (%, negative = inhibition) at 10uM for O=C(COC(=O)CCc1nc2ccccc2n1-c1ccccc1)Nc1ccc(N2CCCCC2)cc1 is 2.85

hERG current change (%, negative = inhibition) at 10uM for CC1(c2nnc(-c3ccc(Cl)cc3)o2)CC(c2c(Cl)cccc2Cl)=NO1 (stereo not drawn) is 1.13

hERG current change (%, negative = inhibition) at 10uM for N=c1c(S(=O)(=O)c2ccccc2)cc2c(=O)n3ccccc3nc2n1C1CCCC1 is 1.62

---
hERG current change (%, negative = inhibition) at 10uM for CC(C)(C)n1nnnc1C(c1ccc(C(F)(F)F)cc1)N(Cc1ccc(F)cc1)Cc1ccco1 (stereo not drawn) is 8.86

hERG current change (%, negative = inhibition) at 10uM for CCc1cc(=O)oc2c3c(cc(OCC(=O)NCCCOC)c12)OC(C)(C)CC3 is 8.45

hERG current change (%, negative = inhibition) at 10uM for CC1CCN(C(=O)CSc2nnc(-c3ccc(S(=O)(=O)N4CCOCC4)cc3)n2C)CC1 is -4.38

hERG current change (%, negative = inhibition) at 10uM for CCCCc1cc(=O)oc2c3c(cc(OCC(=O)NCCCO)c12)OC(C)(C)CC3 is -18.1

hERG current change (%, negative = inhibition) at 10uM for CCc1cc(=O)oc2c3c(cc(OCC(=O)NCc4ccncc4)c12)OC(C)(C)CC3 is -34.4

hERG current change (%, negative = inhibition) at 10uM for O=C(C1=C[C@@H](c2ccccc2)C[C@@H](OCCCCO)O1)N1CCN(Cc2ccc3c(c2)OCO3)CC1 is -55.2

hERG current change (%, negative = inhibition) at 10uM for CCOc1ccc(NC(c2ccccn2)c2oc(CO)cc(=O)c2O)cc1 (stereo not drawn) is 5.43

hERG current change (%, negative = inhibition) at 10uM for CCN(CC(=O)Nc1ccc(NC(C)=O)cc1)C(=O)C1CCCN(C(=O)c2ccc(Cl)cc2)C1 (stereo not drawn) is -3.75

---

Target: human ether-à-go-go-related gene (hERG) potassium channel (human, UniProt Q12809);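 note: peak tail current of the secondary pulse compared with the same well before compound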
Assay: primary screen, population patch clamp on CHO cells stably expressing hERG; higher = less effect of the substance
Experimental: Briefly, Chinese hamster ovary (CHO) cells stably expressing the hERG channel were dislodged from tissue culture flasks and dispensed into PPC plates. […] During the recording, background leak currents were estimated by a 100 ms step to -80 mV from an initial holding potential of -70 mV and subtracted from the subsequent current measurement. The campaign was conducted in two phases using slight differences in recording protocol. […]
Among all 310,000 compounds or so, about 14,000 (4.5%) showed an effect of 50% or more. The effect is printed as a negative number. Many of the other results were omitted from the sample, so strong results are more common in it than they were.
PARAMETER: hERG current change (%, negative = inhibition) at 10uM
In your response, the unit should come after the numeric value.

hERG current change (%, negative = inhibition) at 10uM for Cc1ccc(S(=O)(=O)NC2OC(=O)C(Cl)=C2Cl)cc1 (centres unmarked) is -3.55%

---
hERG current change (%, negative = inhibition) at 10uM for Cc1ccc(C(=O)Nc2ccc3c(c2)OCO3)cc1Cl is 19.7%

hERG current change (%, negative = inhibition) at 10uM for O=C(c1ccc(COc2ccc(Br)cc2)o1)N1N=C(C(F)F)CC1(O)C(F)F (centres unmarked) is 2.57%

hERG current change (%, negative = inhibition) at 10uM for O=C(COC(=O)c1cccc(-n2cnnn2)c1)c1ccccc1 is -4.63%

hERG current change (%, negative = inhibition) at 10uM for Cc1nn(C2CCS(=O)(=O)C2)c(Cl)c1/C=C/C(=O)OCC(=O)N(C)C (centres unmarked) is 11.3%
